test system: SK-MEL-5 melanoma; test: NCI tumour cell line growth inhibition, 48 h
List of TGI values.
readout-kind: TGI (µM)

{"molecule": "COC(=O)CCC1(NS(=O)(=O)c2ccc(C)cc2)CCC(C(C)(C)C)CC1 (stereo not given)", "uom": "µM", "result-operator": "=", "numeric-readout": 19.3}
{"molecule": "O=C(CC(Cl)(Cl)C(Cl)(Cl)Cl)c1ccccc1", "uom": "µM", "result-operator": "=", "numeric-readout": 24.3}
{"molecule": "c1ccc(CSSSCc2ccccc2)cc1", "uom": "µM", "result-operator": "=", "numeric-readout": 15.3}
{"molecule": "COC(=O)c1ccc(NC(=O)c2cc3c(cc2Br)OCO3)o1", "uom": "µM", "result-operator": ">", "numeric-readout": 100}
{"molecule": "CCC1([N+](=O)[O-])CC2C=CC1C2 (stereo not given)", "uom": "µM", "result-operator": ">", "numeric-readout": 100}
{"molecule": "Cn1cc(C2=C(c3c4n(c5ccccc35)CCN(C(N)=S)C4)C(=O)NC2=O)c2ccccc21", "uom": "µM", "result-operator": ">", "numeric-readout": 16.7}
{"molecule": "COCCCCCC(=O)CP(=O)(OC)OC", "uom": "µM", "result-operator": ">", "numeric-readout": 100}
{"molecule": "CC1=C[C@H](O)[C@@]2(C)[C@@H]([C@@H]1C)[C@H]1CC[C@@H]3[C@@]4(C)CC[C@H](O)C(C)(C)[C@@H]4CC[C@@]3(C)[C@]1(C)C[C@@H]2O", "uom": "µM", "result-operator": "=", "numeric-readout": 30.4}
{"molecule": "Cn1c(/C=C/CO)c(CO)c2c1C(=O)C=C(N1CC1)C2=O", "uom": "µM", "result-operator": "<", "numeric-readout": 0.015}
{"molecule": "O=c1[nH]c2ccc(N=Cc3c(O)[nH]c4ccccc34)cc2[nH]1", "uom": "µM", "result-operator": ">", "numeric-readout": 25}

* * *

tested on: OVCAR-4 ovarian; experiment: NCI tumour cell line growth inhibition, 48 h

{"compound": "CN1CCN(CCCCN2c3ccccc3Sc3ccc(C(=O)c4ccccc4)cc32)CC1", "TGI": "6.13 µM"}
{"compound": "O=C1C(c2ccccc2)=[N+]([O-])c2cc([N+](=O)[O-])c(/C(Cl)=C/c3ccccc3)cc21", "TGI": "30.7 µM"}
{"compound": "Oc1ccc(CCl)c2cccnc12", "TGI": "> 100 µM"}
{"compound": "COc1cc2c(cc1OCCCNC(=O)/C=C1/C[C@H]3C=Nc4cc(OCc5ccccc5)c(OC)cc4C(=O)N3C1)NC(=O)[C@@H]1CCCN1C2=O", "TGI": "> 100 µM"}
{"compound": "CCOC(=O)C1(c2ccccc2)CCCNCC1 (configuration not stated)", "TGI": "> 100 µM"}
{"compound": "COc1ccc2c(c1OC)CO[C@@H]2[C@H]1c2c(c(Br)c3c(c2OC)OCO3)CCN1C", "TGI": "> 100 µM"}
{"compound": "O=C(O)c1sccc1O", "TGI": "> 100 µM"}
{"compound": "COc1cc(NC(=O)c2ccc(C(F)(F)F)nc2Nc2ccc(Cl)cc2C)cc(OC)c1OC", "TGI": "25.3 µM"}
{"compound": "CC1=Nn2c(nnc2-c2ccc(Cl)cc2)NC(C)(C)C1", "TGI": "> 100 µM"}
{"compound": "CCOc1ccc2nc3cc(N=Nc4ccc(N)nc4N)ccc3c(N)c2c1", "TGI": "> 78.6 µM"}
{"compound": "O=c1[nH]c2ccc(N=Cc3c(O)[nH]c4ccccc34)cc2[nH]1", "TGI": "> 25 µM"}
{"compound": "CC(=O)OCC1OC(N2C(=S)N[C@H]([C@@H](O)[C@H](O)[C@H](O)CO)[C@H]2O)C(OC(C)=O)C(OC(C)=O)C1OC(C)=O (some centres not stated)", "TGI": "> 100 µM"}
{"compound": "FC(F)(F)c1cccc2ns[s+]c12", "TGI": "> 100 µM"}
{"compound": "CC(=O)NC1=C(C)C(=O)c2c(nc3n2CCC3OC(=O)c2ccccc2)C1=O (configuration not stated)", "TGI": "3.2 µM"}
{"compound": "CC(=O)NC1=C(C)C(=O)c2c(nc3n2CCC3OC(=O)CCl)C1=O (configuration not stated)", "TGI": "4.19 µM"}
{"compound": "COc1cnc2c(c1)C(=O)c1c-2n(CCCBr)c(=O)c2cc([N+](=O)[O-])ccc12", "TGI": "9.17 µM"}
{"compound": "CC(=NCC(=O)O)c1ccccc1", "TGI": "> 100 µM"}
{"compound": "CC1(C(=O)O)CCC(C(=O)O)C(C)(C)O1 (configuration not stated)", "TGI": "> 100 µM"}
{"compound": "COc1cc(C(C)c2ccc3c(ccn3C)c2)cc(OC)c1OC (configuration not stated)", "TGI": "> 100 µM"}
{"compound": "CNC(=S)NC(=S)N(C)C", "TGI": "> 100 µM"}
{"compound": "ClC1=C(Cl)C(Cl)=C(Cl)C1=Cc1ccccc1", "TGI": "6.92 µM"}
{"compound": "CCCCOC(=O)NC(c1ccccc1)C(O)C(=O)OC1C[C@@]2(O)C(OC(=O)c3ccccc3)C3[C@](C)(C(=O)[C@H](OC(C)=O)C(=C1C)C2(C)C)[C@@H](O)C[C@H]1OC[C@@]31OC(C)=O (some centres not stated)", "TGI": "> 10 µM"}
